# System: Plasmodium falciparum
# ASSAY PROCEDURE: Antimalarial activity against chloroquine-sensitive Plasmodium falciparum FCR3 infected in human type A+ erythrocytes assessed as growth inhibition after 72 hrs by LDH assay
# Format: functional, organism-based
# CONDITION NOTES: FCR3, 72 h
pIC50: −log10 of the molar value.
Output Condition met for pIC50 not less than 5; output Condition not met otherwise.

Worked cases, answers included:
- CO[C@H]1C/C=C/[C@@H](O)CC(=O)O[C@@H](/C=C(/C)CNC(C)=O)C/C=C/C=C/C[C@H](C)/C=C/1C: Condition not met
- CO[C@H]1C/C=C/[C@@H](O)CC(=O)O[C@@H](/C=C(/C)CO)C/C=C/C=C/C[C@H](C)/C=C/1C: Condition not met
- C/C=C/C/C(C)=C\[C@H]1C/C=C/C=C/C[C@H](C)/C=C(\C)[C@@H](OC)C/C=C/[C@@H](O)CC(=O)O1: Condition not met
- CCNC(=O)/C(C)=C\[C@H]1C/C=C/C=C/C[C@H](C)/C=C(\C)[C@@H](OC)C/C=C/[C@@H](O)CC(=O)O1: Condition not met

Now examine the next entry.
Record C/C=C/C/C(C)=C\[C@H]1C/C=C/C=C/C[C@H](C)/C=C(\C)[C@@H](OC)C/C=C/[C@@H](O[C@@H]2O[C@H](CO)[C@@H](O)[C@H](OC)[C@H]2O)CC(=O)O1 ; criterion: pIC50 no lower than 5. Met?
Condition met

###

# System: Plasmodium falciparum
# ASSAY PROCEDURE: Antimalarial activity against chloroquine-resistant Plasmodium falciparum K1 infected in human type A+ erythrocytes assessed as growth inhibition after 72 hrs by LDH assay
# Format: functional, organism-based
# CONDITION NOTES: K1, 72 h
Catalogue of IC50 values
The reply should contain only the number, in µM.

Observe how each entry below is paired with its result.
- CO[C@H]1C/C=C/[C@@H](O)CC(=O)O[C@@H](/C=C(/C)CNC(C)=O)C/C=C/C=C/C[C@H](C)/C=C/1C: 19
- CCNC(=O)/C(C)=C\[C@H]1C/C=C/C=C/C[C@H](C)/C=C(\C)[C@@H](OC)C/C=C/[C@@H](O)CC(=O)O1: 16
- C/C=C/C/C(C)=C\[C@H]1C/C=C/C=C/C[C@H](C)/C=C(\C)[C@@H](OC)C/C=C/[C@@H](O[C@@H]2O[C@H](CO)[C@@H](O)[C@H](OC)[C@H]2O)CC(=O)O1: 3.4

Item C/C=C/C/C(C)=C\[C@H]1C/C=C/C=C/C[C@H](C)/C=C(\C)[C@@H](OC)C/C=C/[C@@H](O)CC(=O)O1 has what recorded IC50?
24

###

# Test system: MRC5
# ASSAY PROCEDURE: Growth inhibition of human MRC5 cells after 7 days by MTT assay
# Assay type: cell-based
# CONDITION NOTES: MRC5, 168 h
Measured pIC50 of individual entries
Kindly note that pIC50 refers to -log10 of the concentration in mol/L and answer with the value alone.

Record excerpt, results attached:
* C/C=C/C/C(C)=C\[C@H]1C/C=C/C=C/C[C@H](C)/C=C(\C)[C@@H](OC)C/C=C/[C@@H](O[C@@H]2O[C@H](CO)[C@@H](O)[C@H](OC)[C@H]2O)CC(=O)O1 | 6.40
* CCNC(=O)/C(C)=C\[C@H]1C/C=C/C=C/C[C@H](C)/C=C(\C)[C@@H](OC)C/C=C/[C@@H](O)CC(=O)O1 | 5.54
* CO[C@H]1C/C=C/[C@@H](O)CC(=O)O[C@@H](/C=C(/C)CNC(C)=O)C/C=C/C=C/C[C@H](C)/C=C/1C | 5.52
* C/C=C/C/C(C)=C\[C@H]1C/C=C/C=C/C[C@H](C)/C=C(\C)[C@@H](OC)C/C=C/[C@@H](O)CC(=O)O1 | 6.64

Find pIC50 (MRC5) for the entry CO[C@H]1C/C=C/[C@@H](O)CC(=O)O[C@@H](/C=C(/C)CO)C/C=C/C=C/C[C@H](C)/C=C/1C
4.72

Data provenance: ChEMBL document CHEMBL4184117
